Would you mind telling me the reported inhibition at 20 µM of each entry?
# Tested on: PC-3
# Test description: Cytotoxicity against human PC3 cells at 20 uM after 72 hrs by relative to control
# Type: functional
# Conditions used: PC-3, 72 h
In your response, put the unit directly after the numeric value.

Problem: Could you tell me which inhibition at 20 µM is on file for CC(C)OP(=O)(OC(C)C)C(NC(=S)N[C@@H](Cc1ccccc1)C(=O)NCc1ccc(F)cc1)c1ccccc1 (stereo partly specified) ?
Result: 66.7%

Problem: Input CCOP(=O)(OCC)C(NC(=S)N[C@H](Cc1ccccc1)C(=O)NCc1ccccc1F)c1ccccc1 (stereo partly specified)
Result: 97.2%

Problem: Input CCOP(=O)(OCC)C(NC(=S)N[C@H](Cc1ccccc1)C(=O)NCc1ccccc1)c1ccccc1 (stereo partly specified)
Result: 73.8%

Problem: Input COc1cccc2c1C(=O)c1c(O)c3c(c(O)c1C2=O)C[C@@](O)(C(=O)CO)C[C@@H]3O[C@H]1C[C@H](N)[C@H](O)[C@H](C)O1 [DOXORUBICIN]
Result: 100%

Problem: Input CC(C)OP(=O)(OC(C)C)C(NC(=S)N[C@@H](Cc1ccccc1)C(=O)NCc1ccccc1)c1ccccc1 (stereo partly specified)
Result: 50.1%

Problem: Input CCCOP(=O)(OCCC)C(NC(=S)N[C@@H](Cc1ccccc1)C(=O)NCc1ccc(F)cc1)c1ccccc1 (stereo partly specified)
Result: 51.2%
